PROTOCOL_DESCRIPTION: Water solubility as equilibrium concentration by HPLC

MOLECULE: CC(=O)OC1C(=O)C2(C)C(O)CC3OCC3(OC(C)=O)C2C(OC(=O)c2ccccc2)C2(O)CC(OC(=O)C(OC(=O)CCC(=O)NCCCC(=O)OC3C(O)C(O)OC(CO)C3O)C(NC(=O)c3ccccc3)c3ccccc3)C(C)=C1C2(C)C (stereo not shown) [chackol, (3-glucose) GABA paclitaxel succinate]
solubility: 240 µg/mL
